Please go through the items and note down their kon.
# TARGET_OR_TEST_SYSTEM: T1, recombinant sCD4 comprising the full-length extracellular domain of human CD4 (human, UniProt P01730 26-396)
# T1 construct: also called human soluble CD4; human sCD4 protein
# ASSAY_EXPLANATION: SPR (Biacore), antibody amine-coupled on the chip, human sCD4 as analyte, 25 C, 1:1 Langmuir fit
Numbers only, in M⁻¹ s⁻¹.

Worked cases, answers included:
LM53, ibalizumab light chain mutant with an N-linked glycosylation site at position 53 (antibody, human IgG1, kappa, V domains shown) VH: QVQLQQSGPEVVKPGASVKMSCKASGYTFTSYVIHWVRQKPGQGLDWIGYINPYNDGTDYDEKFKGKATLTSDTSTSTAYMELSSLRSEDTAVYYCAREKDNYATGAWFAYWGQGTLVTVSS VL: DIVMTQSPDSLAVSLGERVTMNCKSSQSLLYSTNQKNYLAWYQQKPGQSPKLLIYWASNATSGVPDRFSGSGSGTDFTLTISSVQAEDVAVYYCQQYYSYRTFGGGTKLEIKR: 290000
LM60, ibalizumab light chain mutant with an N-linked glycosylation site at position 60 (antibody, human IgG1, kappa, V domains shown) VH: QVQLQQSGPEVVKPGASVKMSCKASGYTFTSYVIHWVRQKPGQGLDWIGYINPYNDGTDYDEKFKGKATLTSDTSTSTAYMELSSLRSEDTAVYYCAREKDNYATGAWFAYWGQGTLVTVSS VL: DIVMTQSPDSLAVSLGERVTMNCKSSQSLLYSTNQKNYLAWYQQKPGQSPKLLIYWASTRESGVPNATSGSGSGTDFTLTISSVQAEDVAVYYCQQYYSYRTFGGGTKLEIKR: 440000
LM67, ibalizumab light chain mutant with an N-linked glycosylation site at position 67 (antibody, human IgG1, kappa, V domains shown) VH: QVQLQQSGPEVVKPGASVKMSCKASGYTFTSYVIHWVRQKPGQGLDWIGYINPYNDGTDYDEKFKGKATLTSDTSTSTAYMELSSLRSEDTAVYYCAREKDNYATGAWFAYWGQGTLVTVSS VL: DIVMTQSPDSLAVSLGERVTMNCKSSQSLLYSTNQKNYLAWYQQKPGQSPKLLIYWASTRESGVPDRFSGSGNATDFTLTISSVQAEDVAVYYCQQYYSYRTFGGGTKLEIKR: 250000
LM52, glycan-modified anti-CD4 IgG1 antibody with an N-linked glycan at light chain position 52 (antibody, V domains shown) VH: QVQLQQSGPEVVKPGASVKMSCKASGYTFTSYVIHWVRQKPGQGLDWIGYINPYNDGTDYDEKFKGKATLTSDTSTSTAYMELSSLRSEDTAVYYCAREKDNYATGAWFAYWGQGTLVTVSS VL: DIVMTQSPDSLAVSLGERVTMNCKSSQSLLYSTNQKNYLAWYQQKPGQSPKLLIYWANSTESGVPDRFSGSGSGTDFTLTISSVQAEDVAVYYCQQYYSYRTFGGGTKLEIKR: 460000

Look up kon of LM54, ibalizumab light chain mutant with an N-linked glycosylation site at position 54 (antibody, human IgG1, kappa, V domains shown) VH: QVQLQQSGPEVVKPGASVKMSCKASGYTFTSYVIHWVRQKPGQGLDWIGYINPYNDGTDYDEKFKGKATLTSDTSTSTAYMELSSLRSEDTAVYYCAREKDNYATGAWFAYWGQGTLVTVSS VL: DIVMTQSPDSLAVSLGERVTMNCKSSQSLLYSTNQKNYLAWYQQKPGQSPKLLIYWASTNATGVPDRFSGSGSGTDFTLTISSVQAEDVAVYYCQQYYSYRTFGGGTKLEIKR and report it. 370000
